binders and their reported EC50
- study target: hMPV B1 F (human metapneumovirus)
- assay name: ELISA on coated recombinant protein, OD 405 nm
reported endpoint: EC50 (µg/mL)

• MPV491 (antibody, V domains shown) VH: QVQLQESGPGLVKSSQTLSLTCTVSGGSISSVTSHWTWIRQHPGKGLEWIGYIFSSGTTYYSPSLRSRLTMSVDTSKNQFSLQLSSVTAADTAMYYCARGIYCGDSCYKGTDYWGRGTLVTVSS VL: IRLMTQTPVTLPVTPGEPASISCRSSQSLLHSNGYNYLDWYLQKPGQSPQLLIYRGSTRASGVPDRFSGSGSGTEFTLKISRVEAEDVGVYYCMQGLQTPYTFGQGTKLESR = 2
• MPV486 (antibody, V domains shown) VH: EVQLVESGGHLVQSGGSLRLSCAASGFTFSNYILNWVRQAPGKGLEWISYITGGSSAIYYADSVKGRFTISRDDAKNSLYLQMNNLRAEDTAVYYCARSHGYDSSGYYYYFAMDVWGQGTTVTVSS VL: QSVLTQPPSASGTPGQRVTISCSGSNSNIESNTVNWYQQIPGTAPKLLIYSDNRRPSGVPDRFSGSKSGTSASLAISGLQSEDEADYYCAAWDDSLIGYVFGTGTKVTV = 0.1

FYI, the data here is from patent US20250188153A1.
